target: HIV-1 protease (Human immunodeficiency virus type 1 group M subtype B, UniProt P04585); assay: biochemical; settings: Table VII
Reported metric: Ki (nM)

Study these solved cases before continuing.
CC(C)CN(C[C@@H](O)[C@H](Cc1ccccc1)NC(=O)OC(C)(C)C)S(=O)(=O)c1cccc(F)c1 [Compound 50]    11
CC(=O)Nc1ccc(S(=O)(=O)N(CC(C)C)C[C@@H](O)[C@H](Cc2ccccc2)NC(=O)OCC2CCOC2)cc1 (stereo partly drawn) [Compound 92]    20

(A) CC(C)CN(C[C@@H](O)[C@H](Cc1ccccc1)NC(=O)OC1CCOC1)S(=O)(=O)c1ccc(F)cc1 (stereo partly drawn) [Compound 52]
(B) CC(C)CN(C[C@@H](O)[C@H](Cc1ccccc1)NC(=O)[C@H](CC(N)=O)NC(=O)c1ccc2ccccc2n1)S(=O)(=O)c1ccc(-c2ccccn2)s1 [Compound 12]
(C) CC(C)CN(C[C@@H](O)[C@H](Cc1ccccc1)NC(=O)OC(C)(C)C)S(=O)(=O)N(C)C [Compound 68]
(D) CC(C)N(C[C@@H](O)[C@H](Cc1ccccc1)NC(=O)OC(C)(C)C)S(=O)(=O)c1ccc(F)cc1 [Compound 75]
Could you please order the items by Ki, going from the lowest number to the highest? In plain terms: list the labels in the order you were asked to.
B, A, C, D
